Could you please report measured log10 Ki for the items listed next?
Target: Cholecystokinin receptor type A (Rattus norvegicus, UniProt P30551)
Sequence (P30551 whole entry): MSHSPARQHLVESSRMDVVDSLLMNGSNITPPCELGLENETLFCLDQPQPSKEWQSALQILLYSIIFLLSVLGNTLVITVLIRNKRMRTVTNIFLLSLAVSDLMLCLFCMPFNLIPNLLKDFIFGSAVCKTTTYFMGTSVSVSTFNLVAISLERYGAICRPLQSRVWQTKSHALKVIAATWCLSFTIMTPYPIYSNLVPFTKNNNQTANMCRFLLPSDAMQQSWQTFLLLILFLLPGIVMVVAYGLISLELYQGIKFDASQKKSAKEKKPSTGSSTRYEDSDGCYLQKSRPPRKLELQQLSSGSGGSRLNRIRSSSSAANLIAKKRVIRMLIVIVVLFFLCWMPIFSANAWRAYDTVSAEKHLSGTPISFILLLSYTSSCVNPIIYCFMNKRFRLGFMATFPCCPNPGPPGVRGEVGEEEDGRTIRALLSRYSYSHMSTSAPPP
Test: Inhibition of [3H]L-364718 binding to cholecystokinin type A receptor in rat pancreas membranes
Assay type: cell membranes, Membrane
Short version: log10 scale, Ki, nM.

Given item O=C(NCC=C(c1ccccc1)c1ccccc1)Nc1ccc(Cl)cc1 , the value recorded as its log10 Ki is 1.95

Given item CCCCCN(CCCCC)C(=O)[C@@H](CCC(=O)O)NC(=O)c1ccc(Cl)c(Cl)c1 , the value recorded as its log10 Ki is 1.69

Given item O=C(NCC=C(c1ccccc1)c1ccccc1)c1ccc2ccccc2c1 , the value recorded as its log10 Ki is 2.65

Given item Cc1cccc(NC(=O)NCC=C(c2ccccc2)c2ccccc2)c1 , the value recorded as its log10 Ki is 2.90

Given item O=C(NCC=C(c1ccccc1)c1ccccc1)c1cccc2ccccc12 , the value recorded as its log10 Ki is 3.00

Given item O=C(NCC=C(c1ccccc1)c1ccccc1)c1ccc(Cl)c(Cl)c1 , the value recorded as its log10 Ki is 2.60

====

target: Cholecystokinin receptor type A (Rattus norvegicus); test: Displacement of [3H]L-364718 from Cholecystokinin type A receptor of rat pancreatic membranes; type: cell membranes, Membrane
Could you please report measured Ki for the items listed next?
Value expressed in nM; do not type the unit.

Given item O=C(NCC=C(c1ccccc1)c1ccccc1)c1cc2ccccc2[nH]1 , the value recorded as its Ki is 340

Given item CCCCCC(=CCNC(=O)Nc1ccc(Cl)cc1)CCCCC , the value recorded as its Ki is 200

Given item O=C(NCCC=C(c1ccccc1)c1ccccc1)Nc1ccc(Cl)cc1 , the value recorded as its Ki is 400

Given item O=C(NCC=C(c1ccccc1)c1ccccc1)c1ccc2ccccc2n1 , the value recorded as its Ki is 470

====

Could you please report measured pKi for the items listed next?
molecular target: UniProt P30551; assay: Displacement of [3H]L-364718 from Cholecystokinin type A receptor of rat pancreatic membranes; type: cell membranes, Membrane
pKi: −log10 of the molar value.

Considering O=C(NCC=C(c1ccccc1)c1ccccc1)c1cnc2ccccc2c1 , its pKi with UniProt P30551 was recorded as < 5.70

Considering O=C(NC/C=C/c1ccccc1)Nc1ccc(Cl)cc1 , its pKi with UniProt P30551 was recorded as < 5.40

Considering COc1ccc(C(=CCNC(=O)c2cc3ccccc3[nH]2)c2ccc(OC)cc2)cc1 , its pKi with UniProt P30551 was recorded as < 5.40

Considering O=C(NCC=C(c1ccccc1)c1ccccc1)c1cc2cccc3c2n1CCC3 , its pKi with UniProt P30551 was recorded as < 5.70

Considering O=C(NCC=C(c1ccccc1)c1ccccc1)c1ccnc2ccccc12 , its pKi with UniProt P30551 was recorded as < 5.70
